Molecular target: σ-2 (Rattus norvegicus)
Sequence (Q5U3Y7 whole entry): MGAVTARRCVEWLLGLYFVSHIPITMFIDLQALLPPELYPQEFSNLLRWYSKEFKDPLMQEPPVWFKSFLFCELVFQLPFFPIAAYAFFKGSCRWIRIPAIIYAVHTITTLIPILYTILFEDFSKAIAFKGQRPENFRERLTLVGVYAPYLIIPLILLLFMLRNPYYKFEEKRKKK
pKi: −log10 of the molar value.
// reported pKi for each item listed
OBSERVED PROPERTY: pKi

[
  {
    "COMPOUND": "NS(=O)(=O)c1ccc(CNC(=O)Cc2ccccc2)cc1 [Compound 16, 2-Phenyl-N-(4-sulfamoylbenzyl) acetamide]",
    "INEQUALITY OPERATOR": "<",
    "OBSERVED MEASUREMENT": 5.00
  },
  {
    "COMPOUND": "Cc1cc(NC(=O)C2(C)CCc3c(C)c(O)c(C)c(C)c3O2)no1 (stereo not shown) [Compound 13]",
    "INEQUALITY OPERATOR": "=",
    "OBSERVED MEASUREMENT": 5.16
  },
  {
    "COMPOUND": "Cc1c(C)c2c(c(C)c1O)CCC(C)(C(=O)NCc1ccc(C(=O)NN)cc1)O2 (stereo not shown) [Compound 9]",
    "INEQUALITY OPERATOR": "<",
    "OBSERVED MEASUREMENT": 5.00
  },
  {
    "COMPOUND": "Cc1c(C)c2c(c(C)c1O)CCC(C)(C(=O)Nc1nc3ccccc3[nH]1)O2 (stereo not shown) [Compound 6]",
    "INEQUALITY OPERATOR": "=",
    "OBSERVED MEASUREMENT": 5.13
  }
]
